Target protein (sequence): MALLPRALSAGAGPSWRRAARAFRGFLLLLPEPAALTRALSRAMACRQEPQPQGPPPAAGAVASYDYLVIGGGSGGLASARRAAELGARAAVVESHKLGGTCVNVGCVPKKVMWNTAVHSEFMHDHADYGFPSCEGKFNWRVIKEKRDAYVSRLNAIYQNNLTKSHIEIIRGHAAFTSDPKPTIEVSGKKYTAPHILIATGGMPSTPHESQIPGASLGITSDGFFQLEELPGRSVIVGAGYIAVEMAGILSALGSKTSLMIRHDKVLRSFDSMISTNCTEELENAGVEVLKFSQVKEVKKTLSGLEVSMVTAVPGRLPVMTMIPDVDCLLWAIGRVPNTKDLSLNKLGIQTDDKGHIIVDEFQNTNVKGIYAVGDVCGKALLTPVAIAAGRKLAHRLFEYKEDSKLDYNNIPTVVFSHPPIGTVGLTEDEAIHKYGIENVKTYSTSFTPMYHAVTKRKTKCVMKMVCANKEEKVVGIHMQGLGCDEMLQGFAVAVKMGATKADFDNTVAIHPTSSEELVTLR
System: the protein given by its sequence | Read-out: IC50 | Origin: multiple publications

Take a look at these entries with their results.
- N=C(NCCCNCCCNCCCNC(=N)NC(=N)NCC(c1ccccc1)c1ccccc1)NC(=N)NCC(c1ccccc1)c1ccccc1: > 100 µM
- N=c1n(CCN2CCCCC2)c2ccccc2n1CC(O)c1ccc(Cl)c(Cl)c1 (configuration not stated): > 100 µM
- NC(=NCCCNCCCCCCCNCCCN=C(N)NCC(c1ccccc1)c1ccccc1)NCC(c1ccccc1)c1ccccc1: > 100 µM
- CCCCN(CCCC)CCCNC(=O)CCCCC1=C(C)C(=O)c2ccccc2C1=O: > 40 µM
- CC[C@H](CO)NCc1ccc([N+](=O)[O-])cc1: 13.3 µM
- O=C(Cc1ccc2ccccc2c1)NNC(=O)c1ccc([N+](=O)[O-])o1: 4.1 µM

Notebook: CC(C)(C)OC(=O)N[C@@H](CCCCNC(=O)OCc1ccccc1Cl)C(=O)Oc1ccc([N+](=O)[O-])cc1 , IC50 read as 15.4 µM

Data point: NC(=NCCCNCCCCCCCNCCCN=C(N)NCCC(c1ccccc1)c1ccccc1)NCCC(c1ccccc1)c1ccccc1 ; IC50 = > 100 µM

Lookup result for N=C(NCCCNCCCCNCCCNC(=N)NCC(c1ccccc1)c1ccccc1)NCC(c1ccccc1)c1ccccc1 ; measured IC50: > 100 µM

response.value for N=C(NCCCNCCCNCCCNC(=N)NCCC(c1ccccc1)c1ccccc1)NCCC(c1ccccc1)c1ccccc1 (field: IC50) = > 100 µM

# molecule N=c1n(CCOCCOCCn2c(=N)n(Cc3ccccc3)c3ccccc32)c2ccccc2n1Cc1ccccc1 ; its IC50 = > 100 µM

For reference, reported IC50 for CCCCN(CCCC)CCCNC(=O)CCCCC1=C(C)C(=O)c2cccc(O)c2C1=O stands at > 40 µM
